Measured fold difference in affinity in comparison to original by item
Target: binding partner of C5A (XPA23)
Assay: Biacore, mutant vs original C5A (XPA23)
Write the value in fold as a bare number.

Consider the following illustrative entries.
binder: C5A (XPA23) light chain variable region D92T (antibody, V domains shown) VH: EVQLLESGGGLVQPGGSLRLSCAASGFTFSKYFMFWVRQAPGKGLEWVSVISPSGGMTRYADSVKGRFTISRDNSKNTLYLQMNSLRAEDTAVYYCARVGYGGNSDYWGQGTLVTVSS VL: DIQMTQSPSSVSASVGDRLTIICRASQDINRWLAWYQQTPGNAPKLLIHSATSLQSGVPSRFSGSGSGTDFTLTINSLQPEDFATYYCQQATSFPLTFGGGTKVEIK
measurement: 0.34

binder: C5A (XPA23) light chain variable region D92A (antibody, V domains shown) VH: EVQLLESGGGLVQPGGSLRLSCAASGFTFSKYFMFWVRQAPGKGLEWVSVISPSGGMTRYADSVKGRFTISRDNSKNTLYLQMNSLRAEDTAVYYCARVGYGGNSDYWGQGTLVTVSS VL: DIQMTQSPSSVSASVGDRLTIICRASQDINRWLAWYQQTPGNAPKLLIHSATSLQSGVPSRFSGSGSGTDFTLTINSLQPEDFATYYCQQAASFPLTFGGGTKVEIK
measurement: 0.4

// query fold difference in affinity in comparison to original value for entry C5A (XPA23) light chain variable region S53T (antibody, V domains shown) VH: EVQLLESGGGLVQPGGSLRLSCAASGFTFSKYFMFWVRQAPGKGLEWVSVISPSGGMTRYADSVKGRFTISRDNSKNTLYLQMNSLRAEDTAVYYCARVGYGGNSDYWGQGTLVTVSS VL: DIQMTQSPSSVSASVGDRLTIICRASQDINRWLAWYQQTPGNAPKLLIHSATTLQSGVPSRFSGSGSGTDFTLTINSLQPEDFATYYCQQADSFPLTFGGGTKVEIK
0.95
